Values were extracted from ChEMBL document CHEMBL4513216.

system: Plasmodium berghei; assay: Screen against P. berghei liver stage (PbLuc), transformed with Luciferase, at 10uM; type: functional, HepG2; conditions: tested at 10 uM
Out of some 69,000 compounds screened, about 8,600 (12%) showed an effect of 50% or more. This is one part of a sample in which strong results are shown more often than they occur.
result.type: INHIBITION (%)
Kindly answer with a numeric value in %, unit omitted.

Cc1nc(-c2noc3ccc(C(=O)NCCN4CCOCC4)cc23)co1
63
Cn1ccnc1C(=O)NC[C@H]1OC[C@@H]2CCN(S(C)(=O)=O)C[C@@H]21
52.1
Cc1ncc2c(n1)CN(CC(=O)NCCOc1ccccc1)CC2
-3.7
COC(=O)N1CCC2(CC1)CC(c1ccccc1)CN(C)C2 (configuration not stated)
39.4
Cc1nc(-c2noc3ccc(C(=O)NCCN4CCOCC4)cc23)cs1
46.7

Tell me INHIBITION reported for CC1CCCN(CCCNC(=O)c2ccc(N(C)S(C)(=O)=O)cc2Cl)C1 (configuration not stated)
53.7

Tell me INHIBITION reported for COc1ccccc1C(=O)N1CC(=O)N(C2CCCCC2)CC(O)C1 (configuration not stated)
50.2

Tell me INHIBITION reported for O=S1(=O)C[C@@H]2[C@H](C1)N(Cc1ncc[nH]1)CCN2CCCc1ccccc1
34.275

* * *

system: Plasmodium berghei; experiment: Screen against P. berghei liver stage (PbLuc), transformed with Luciferase, at 10uM; format: functional, HepG2; conditions: tested at 10 uM
In all, about 69,000 compounds went through this assay and about 8,600 (12%) showed an effect of 50% or more. The sample as a whole holds a higher share of strong results than the screen did.
Recorded INHIBITION values for a group of molecules are listed next.
A complete answer gives the number followed by the unit.

Consider the reported INHIBITION for these molecules:
Cn1cccc1C(=O)N1CCO[C@@H]2CN(Cc3nccs3)C[C@@H]2C1
-28.5%
O=C(C1CCCC1)N1CCCC2(CCN(c3cnccn3)CC2)C1
-9.74%
CS(=O)(=O)N1CCN(C(=O)c2cc(-c3cccs3)cs2)CC1
33.3%
Cc1cccc(-c2nnc(C(C)NCCn3cc(C)cn3)o2)c1 (centres undefined)
17.9%
COc1ccc(N2CCCC3(C2)CN(c2cccnc2)CCO3)cc1 (centres undefined)
8.85%
CCC(C(=O)NCC1=CCN(C)CC1)c1ccccc1 (centres undefined)
8.7%

Tell me INHIBITION reported for CC(C)N1CCOCC2(CN(Cc3cccs3)CCO2)C1 (centres undefined)
41.2%

Tell me INHIBITION reported for Fc1cnc(N2CCCC3(CN(Cc4cccs4)CCO3)C2)nc1 (centres undefined)
32.5%

Tell me INHIBITION reported for CC(=O)Nn1c(C)cc(CN2CCC(C(=O)N3CCCC3)CC2)c1C
52.8%

Tell me INHIBITION reported for c1cncc(N2CCCC3(CN(Cc4cccs4)CCO3)C2)c1 (centres undefined)
63.7%

Tell me INHIBITION reported for COCCCNC(=O)CN1CCSC(c2ccccc2)C1 (centres undefined)
3.88%

Tell me INHIBITION reported for Cc1cnn(CCNC(C)c2nnc(-c3ccccc3)o2)c1 (centres undefined)
54.8%

* * *

tested on: Plasmodium berghei; test: Screen against P. berghei liver stage (PbLuc), transformed with Luciferase, at 10uM; type: functional, HepG2; conditions: tested at 10 uM
In all, about 69,000 compounds went through this assay and about 8,600 (12%) showed an effect of 50% or more. The entries come from a sample that favours strong results as a whole.
Recorded INHIBITION values for a group of molecules are listed next.
A complete answer gives the number followed by the unit.

Tell me INHIBITION reported for FC(F)(F)c1ccc2nc([C@H]3CCN(C4CCC4)C3)[nH]c2c1
39.2%

Tell me INHIBITION reported for O=C(NC1CC1)C1=CC2(CCN(CCO)CC2)c2ccccc21
28.4%

Tell me INHIBITION reported for Cc1cc(C)n(CCNc2ncnc3c2NC(=O)CN3)n1
44.1%

Tell me INHIBITION reported for O=C(NCC(c1ccc(F)cc1)N1CCOCC1)Nc1cn[nH]c1 (centres undefined)
-57.4%

Tell me INHIBITION reported for CCc1cc(NC2CCC(N)CC2)n2nc(C)c(C)c2n1 (centres undefined)
14.1%

Tell me INHIBITION reported for CC(C)CCN(C(=O)c1cccc(NC(N)=O)c1)C1CC1
12.4%

Tell me INHIBITION reported for Cn1cc(C(=O)NC(Cn2cccn2)C(C)(C)C)cn1 (centres undefined)
35.2%

Tell me INHIBITION reported for CN1CCC(N2CC[C@H](c3nc4ccc(C(F)(F)F)cc4[nH]3)C2)CC1
24.3%

Tell me INHIBITION reported for CC(C)N1CC[C@H](c2nc3ccc(C(F)(F)F)cc3[nH]2)C1
30.3%

Tell me INHIBITION reported for CCN1CCO[C@]2(CCC[C@H]2COCc2csc(C)n2)C1
52.9%

Tell me INHIBITION reported for Cc1nc(COC[C@H]2CCC[C@]23CN(C2CCOC2)CCO3)cs1 (some centres undefined)
49.7%

Tell me INHIBITION reported for Cc1cc(C)n(CCCNc2ncnc3c2NC(=O)CN3)n1
57.3%

Tell me INHIBITION reported for CCc1cc(NCC(O)CN2CCCC2)ncn1 (centres undefined)
18.5%

Tell me INHIBITION reported for Cc1cc(C(F)(F)F)c2c(C3CCCN(C(=O)C4CC4)C3)noc2n1 (centres undefined)
26.8%

Tell me INHIBITION reported for FC(F)(F)c1ccc2nc([C@H]3CCN(C4CCOCC4)C3)[nH]c2c1
53%

Tell me INHIBITION reported for Cc1nc(COC[C@@H]2CCC[C@@]23CN(C)CCO3)cs1
48.6%

Tell me INHIBITION reported for Cc1nn(CCNc2ncnc3c2NC(=O)CN3)c(C)c1Cl
42.4%

* * *

test system: Plasmodium berghei; test: Screen against P. berghei liver stage (PbLuc), transformed with Luciferase, at 10uM; assay type: functional, HepG2; settings: tested at 10 uM
Screen size: about 69,000 compounds; about 8,600 (12%) showed an effect of 50% or more. What follows is part of a selection rich in strong results, with near analogues and random picks from the rest.
result.type: INHIBITION (%)
Kindly answer with a numeric value in %, unit omitted.

CC(=O)N[C@H]1CCO[C@@H](c2cccc(NC(=O)c3cccc(F)c3)c2)C1
6.74
CC(C)CSCCCNC(=O)C1CCOC1 (centres undefined)
33.7
COc1c[nH]c(C(=O)N2CCN(c3ccc(Cl)cc3)CC2)cc1=O
13.9

Tell me INHIBITION reported for CC[C@H]1COCCN1C(=O)CCCn1nnc(-c2ccc(F)cc2)n1
35

Tell me INHIBITION reported for CCN(CC)C1COc2c(cc(Br)c(C)c2C)C1=O (centres undefined)
47.1

Tell me INHIBITION reported for Cc1cc(C(F)(F)F)nc(C2CCCN2S(C)(=O)=O)n1 (centres undefined)
20.2

Tell me INHIBITION reported for O=C(NCc1ccccc1)[C@H]1C[C@H]2CN(C(=O)NC3CCCC3)C[C@@H]1O2
7.65

Tell me INHIBITION reported for Clc1ccccc1CCn1ccnc1-c1cn(C2CCNCC2)nn1
22.4

* * *

tested on: Plasmodium berghei; assay: Screen against P. berghei liver stage (PbLuc), transformed with Luciferase, at 10uM; assay type: functional, HepG2; settings: tested at 10 uM
The whole screen tested about 69,000 compounds, of which about 8,600 (12%) showed an effect of 50% or more. This is one part of a sample in which strong results are shown more often than they occur.
Recorded INHIBITION values for a group of molecules are listed next.
Kindly answer with a numeric value in %, unit omitted.

Consider the reported INHIBITION for these molecules:
COc1cc(C(=O)NCCS(=O)(=O)N(C)C)c2ccccc2n1
52.9
CN1CCC(NC(=O)c2cc(C3CCCCC3)nc3ccccc23)CC1
10.5
Cc1ccc(C(=O)N2C[C@H]3CCC[C@@]3(COCc3ccncc3)C2)cn1
43.9
COc1cc(C(=O)NCC2(N(C)C)CCN(C)CC2)c2ccccc2n1
68.4
CC(C)NC(=O)N1CCc2c(CNc3ncccn3)cncc2C1
-41.4

Tell me INHIBITION reported for CCn1nc(CC(C)C)cc1C(=O)NCCS(=O)(=O)N(C)C
7.25

* * *

system: Plasmodium berghei; experiment: Screen against P. berghei liver stage (PbLuc), transformed with Luciferase, at 10uM; type: functional, HepG2; conditions: tested at 10 uM
Out of some 69,000 compounds screened, about 8,600 (12%) showed an effect of 50% or more. The sample as a whole holds a higher share of strong results than the screen did.
Please enter YES where INHIBITION is greater than or equal to 40%, and NO where it is lower.

The examples below pair each entry with its known result.
COc1cccc(CN2CCC3(CCN(c4ncc(C)cn4)C3)C2=O)c1 (stereo unspecified)
NO
COc1cc(N2CCC3(CCN(Cc4cccnc4)C3=O)C2)ncn1 (stereo unspecified)
YES
Cc1csc(N2CCCN(C(=O)CCN3CCCC3=O)CC2)n1
NO
CSc1nc2cc(C)n(CC(N)=O)c2c(=O)n1CC(C)C
YES
CCN1CCC2(CC1)CN(CCO)c1ccccc12
NO
Cc1nc(CN(C)C2CCCN(c3cccnn3)C2)oc1C (stereo unspecified)
NO
COc1nn(C)c2c1CCCN(C(=O)c1ccccc1F)C2
NO
CC(C)Oc1ccc(C(=O)N2CC[C@H](O)[C@@H](n3ccnc3)CC2)cc1
NO
COCC(=O)N1CCCC2(CCN(c3cncnc3)C2=O)C1 (stereo unspecified)
NO
CSc1nc2cc(C)n(CC(=O)NC(C)C)c2c(=O)n1CC(C)C
YES

Let us examine a further case.
For this molecule, is measured INHIBITION 40% or higher? O=C(c1cccc(C2CCNC2)c1)N1CCC(N2CCC(O)CC2)CC1 (stereo unspecified)
NO
